# study target: NLRP3 (Homo sapiens, UniProt Q96P20)
# Sequence (Q96P20 whole entry): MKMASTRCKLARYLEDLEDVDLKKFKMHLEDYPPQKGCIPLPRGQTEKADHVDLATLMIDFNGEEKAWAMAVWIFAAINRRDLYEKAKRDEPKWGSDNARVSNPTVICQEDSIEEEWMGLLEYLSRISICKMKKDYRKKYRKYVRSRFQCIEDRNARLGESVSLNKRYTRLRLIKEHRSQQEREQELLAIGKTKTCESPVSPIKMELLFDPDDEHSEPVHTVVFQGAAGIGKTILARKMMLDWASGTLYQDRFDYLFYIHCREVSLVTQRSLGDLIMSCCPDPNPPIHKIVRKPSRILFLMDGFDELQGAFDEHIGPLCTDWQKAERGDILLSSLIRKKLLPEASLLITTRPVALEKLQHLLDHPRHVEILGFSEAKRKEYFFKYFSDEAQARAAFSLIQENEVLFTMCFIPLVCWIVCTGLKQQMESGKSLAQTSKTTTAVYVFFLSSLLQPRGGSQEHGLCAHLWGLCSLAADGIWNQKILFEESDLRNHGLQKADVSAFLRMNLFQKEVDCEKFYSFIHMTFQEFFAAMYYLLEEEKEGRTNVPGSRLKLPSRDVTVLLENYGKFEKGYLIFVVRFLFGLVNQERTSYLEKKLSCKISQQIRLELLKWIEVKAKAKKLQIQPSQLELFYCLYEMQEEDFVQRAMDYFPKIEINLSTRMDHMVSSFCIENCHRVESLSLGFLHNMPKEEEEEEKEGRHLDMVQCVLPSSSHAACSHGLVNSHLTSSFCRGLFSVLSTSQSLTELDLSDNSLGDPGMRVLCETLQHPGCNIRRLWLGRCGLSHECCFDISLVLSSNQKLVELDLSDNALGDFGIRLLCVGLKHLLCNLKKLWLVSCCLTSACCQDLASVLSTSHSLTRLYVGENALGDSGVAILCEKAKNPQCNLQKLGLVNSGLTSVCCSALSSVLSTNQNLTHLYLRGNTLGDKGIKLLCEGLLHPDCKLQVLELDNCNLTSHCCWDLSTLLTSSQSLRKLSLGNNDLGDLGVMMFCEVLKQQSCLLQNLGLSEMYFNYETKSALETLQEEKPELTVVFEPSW
# test: Human whole blood IL1β release assay (LPS + nigericin, AlphaLisa IL-1β; HWB IC50)
# Type: cell-based
# Set-up: Human whole blood in Li-heparin tubes was obtained from healthy donors from a volunteer donor panel; from tissue; host or cells: human whole blood from healthy donors
# stated conditions: IL-1β release
Structures can show the parent of a compound that is named as a salt.
value kind: IC50

INSERT INTO assay_data (compound, study_target, value_kind, experimental_result) VALUES
  ('COc1cc(-c2cc(F)c3c(c2NC(=O)NS(=O)(=O)c2ccn(CCN(C)C)n2)CCC3)ccn1', 'NLRP3 (Homo sapiens, UniProt Q96P20)', 'IC50', '≤ 500 nM'),
  ('CN(C)c1cnc(S(=O)(=O)NC(=O)Nc2c(-c3ccncc3)cc(F)c3c2CCC3)cn1', 'NLRP3 (Homo sapiens, UniProt Q96P20)', 'IC50', '≤ 5000 nM');

Hello, I would appreciate it if you could give IC50 for each entry below.
1. CC(C)n1ccc(S(=O)(=O)NC(=O)Nc2c(-c3ccnnc3)ccc3c2CCC3)n1 [Example 223, sodium salt]
2. CCC(c1cc(S(=O)(=O)NC(=O)Nc2c(-c3ccnc(OC)c3)ccc3c2CCC3)nn1C(C)C)N(C)C (centres unmarked)
3. CC(C)(CN1CCC1)n1ccc(S(=O)(=O)NC(=O)Nc2c(-c3ccnc(OC4CC4)c3)ccc3c2CCC3)n1 [Example 274, sodium salt]
4. CC(C)c1cc(F)cc(-c2cccnc2)c1NC(=O)NS(=O)(=O)c1ccn(C[C@@H](C)O)n1
5. CNCc1cc(S(=O)(=O)NC(=O)Nc2c(-c3ccnc(OC)c3)ccc3c2CCC3)nn1C1CC1 [Example 190, sodium salt]

≤ 500 nM
≤ 500 nM
≤ 500 nM
≤ 500 nM
≤ 500 nM
